test system: 293T cells; test: Fluorescent detection of Fluc-mRNA (cell transfection efficiency of LNP formulations); format: cell-based; conditions: ratio vs HHMA
endpoint-name: RLU value, times that of HHMA
Give bare numbers.

In [3]: df
Out[3]:
                         compound_structure  assayed_system  endpoint_result
0  CCCCCCCCC(CCCCCCCC)OC(=O)CCCCCCCN(CCO)CCN(CCO)CCCCCCCC(=O)OC(CCCCCCCC)CCCCCCCC      293T cells             2.52

Record RLU value, times that of HHMA per entry; entries follow.
1. CCCCCCCCCCCOC(=O)CCCN(CCO)CCN(CCO)CCCCCC(=O)OC(CCCCCCCC)CCCCCCCC
2. CCCCCCCCC(CCCCCCCC)COC(=O)CCCCCN(CCCO)CCN(CCCO)CCCCCC(=O)OCC(CCCCCCCC)CCCCCCCC

[9.81, 3.09]

Record RLU value, times that of HHMA per entry; entries follow.
1. CCCCCCCCC(CCCCCCCC)OC(=O)CCCCCN(CCO)CCN(CCO)CCCCCC(=O)OC(CCCCCCCC)CCCCCCCC
2. CCCCCCCCC(CCCCCCCC)COC(=O)CCCCCN(CCCO)CCCN(CCCO)CCCCCC(=O)OCC(CCCCCCCC)CCCCCCCC
3. CCCCCCCCC(CCCCCCCC)C(=O)OCCCCCCN(CCO)CCN(CCO)CCCCCCOC(=O)C(CCCCCCCC)CCCCCCCC

1. 2.70
2. 3.00
3. 2.43
